read-out: Monokine induced gamma interferon (MIG), CXCL9 (gene 4283); test: BSK_hDFCGF_MIG: BioMAP Diversity Plus: hDFCGF Assay for Monokine induced gamma interferon (MIG) Biomarker Activity (AID 2283063); conditions: primary human foreskin fibroblasts; actives raise or lower the signal
The source made the active and inactive calls. The calls were made as follows: active = hit-call score of the fitted dose curve at least 0.9, where 1 is the maximum; inactive = score below 0.9.
Please state which outcome applies, choosing from t (active), f (inactive)

[in] Recorded call for `O=[N+]([O-])c1c(Cl)c(Cl)c(Cl)c(Cl)c1Cl` ?
[out] t

[in] Recorded call for CC[C@H](C)[C@H]1O[C@]2(C=C[C@@H]1C)C[C@@H]1C[C@@H](C/C=C(\C)[C@@H](O[C@H]3C[C@H](OC)[C@@H](O[C@H]4C[C@H](OC)[C@@H](O)[C@H](C)O4)[C@H](C)O3)[C@@H](C)/C=C/C=C3\CO[C@@H]4[C@H](O)C(C)=C[C@@H](C(=O)O1)[C@]34O)O2 (tested in a mixture with another compound) ?
[out] t

[in] Recorded call for CC1(C)C(C=C(Cl)Cl)C1C(=O)OC(C#N)c1ccc(F)c(Oc2ccccc2)c1 (stereo unspecified) ?
[out] f

[in] Recorded call for CCC(C)Nc1c([N+](=O)[O-])cc(C(C)(C)C)cc1[N+](=O)[O-] (stereo unspecified) ?
[out] f

[in] Recorded call for CCC(C)(NC(=O)c1cc(Cl)c(C)c(Cl)c1)C(=O)CCl (stereo unspecified) ?
[out] t

[in] Recorded call for `N#CN` ?
[out] f

[in] Recorded call for `C#CCN1C(=O)COc2cc(F)c(N3C(=O)C4=C(CCCC4)C3=O)cc21` ?
[out] f

[in] Recorded call for CC(C)(C)C(O)C(Oc1ccc(Cl)cc1)n1cncn1 (stereo unspecified) ?
[out] f

[in] Recorded call for `O=C(O)CCCOc1ccc(Cl)cc1Cl` ?
[out] f

[in] Recorded call for `COP(=S)(OC)Oc1ccc(SC)c(C)c1` ?
[out] f

[in] Recorded call for `CCN(CC)C(=O)SCc1ccc(Cl)cc1` ?
[out] f
